target: Progesterone receptor (Homo sapiens); experiment: Agonistic effect on transcriptional activity in T47D cells expressing human Progesterone receptor; type: functional, cell-based
propertyName: pEC50
Just the number, please; pEC50 means minus log10 of the concentration in mol/L.

# input Query (compound): CC1=CC(C)(C)Nc2ccc3c(c21)C(c1ccc(Cl)cc1)Oc1ccccc1-3 (stereo unspecified) ; field requested: pEC50
# output 7.49

* * *

# maps each entry to its Efficacy
biological target: Progesterone receptor (Homo sapiens) (UniProt P06401); test: Agonistic activity by cotransfection assay against human Progesterone receptor in T47D cells; format: functional, cell-based
// note: answer is a bare numeric in %

Some compounds with recorded Efficacy:
compound	Efficacy (%)
C[C@@H]1C(=O)C(C)(C)Nc2ccc3c(c21)[C@H](c1cccc(F)c1)Oc1ccccc1-3	96
CC1=CC(C)(C)Nc2ccc3c(c21)/C(=C/c1cccc(F)c1)Oc1ccccc1-3	55
C[C@H]1C(=O)C(C)(C)Nc2ccc3c(c21)[C@H](c1cccc(C(F)(F)F)c1)Oc1ccccc1-3	103
CC1=CC(C)(C)Nc2ccc3c(c21)C(c1cccc(Cl)c1)Oc1ccc(F)cc1-3 (centres undefined)	47
C[C@@H]1C(=O)C(C)(C)Nc2ccc3c(c21)[C@H](c1cccc(C(F)(F)F)c1)Oc1ccccc1-3	85

Next up:
# input Suppose we examine the compound CC1C(=O)C(C)(C)Nc2ccc3c(c21)/C(=C/c1cccc(F)c1)Oc1ccccc1-3 (centres undefined) ; what Efficacy value has been reported?
# output 83

* * *

Target: Progesterone receptor (Homo sapiens)
Sequence (P06401 whole entry): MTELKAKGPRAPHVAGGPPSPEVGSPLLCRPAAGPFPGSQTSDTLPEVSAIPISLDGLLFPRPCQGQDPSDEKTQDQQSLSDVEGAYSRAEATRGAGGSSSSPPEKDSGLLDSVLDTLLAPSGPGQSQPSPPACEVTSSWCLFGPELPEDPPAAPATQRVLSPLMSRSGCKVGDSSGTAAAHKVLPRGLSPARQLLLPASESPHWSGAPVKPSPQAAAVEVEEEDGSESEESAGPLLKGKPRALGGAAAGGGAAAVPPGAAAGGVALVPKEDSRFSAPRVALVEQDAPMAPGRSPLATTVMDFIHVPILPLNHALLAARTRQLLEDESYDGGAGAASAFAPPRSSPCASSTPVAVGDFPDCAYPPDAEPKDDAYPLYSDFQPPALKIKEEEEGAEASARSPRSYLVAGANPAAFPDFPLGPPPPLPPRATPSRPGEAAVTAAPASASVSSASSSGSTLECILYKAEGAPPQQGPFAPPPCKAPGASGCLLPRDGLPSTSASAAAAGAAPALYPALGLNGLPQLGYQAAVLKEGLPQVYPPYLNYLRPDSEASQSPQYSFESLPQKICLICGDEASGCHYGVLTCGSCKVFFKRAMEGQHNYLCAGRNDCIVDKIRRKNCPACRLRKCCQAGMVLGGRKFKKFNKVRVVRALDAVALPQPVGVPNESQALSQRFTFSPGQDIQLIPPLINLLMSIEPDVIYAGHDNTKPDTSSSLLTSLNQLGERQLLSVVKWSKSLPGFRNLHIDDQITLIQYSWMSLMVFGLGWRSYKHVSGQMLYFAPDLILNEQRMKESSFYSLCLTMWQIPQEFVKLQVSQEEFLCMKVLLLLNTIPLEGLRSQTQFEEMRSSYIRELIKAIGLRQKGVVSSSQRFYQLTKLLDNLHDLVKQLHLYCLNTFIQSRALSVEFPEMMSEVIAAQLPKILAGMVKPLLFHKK
pKi: −log10 of the molar value.
I would appreciate it if you labelled entries Fulfilled when pKi is 8 or higher, otherwise Not fulfilled.

Below are worked cases with known answers.
molecule	testedSystem	classAssignment
C[C@@H]1c2c(ccc3c2[C@H](c2ccc(Cl)cc2)Oc2ccccc2-3)NC(C)(C)[C@H]1O	Progesterone receptor (Homo sapiens)	Not fulfilled
C[C@@H]1C(=O)C(C)(C)Nc2ccc3c(c21)[C@H](c1cccc(F)c1)Oc1ccccc1-3	Progesterone receptor (Homo sapiens)	Fulfilled
CC1C(=O)C(C)(C)Nc2ccc3c(c21)/C(=C/c1cccc(F)c1)Oc1ccccc1-3 (configuration not stated)	Progesterone receptor (Homo sapiens)	Fulfilled
CC1C(=O)C(C)(C)Nc2ccc3c(c21)/C(=C/c1ccccc1)Oc1ccccc1-3 (configuration not stated)	Progesterone receptor (Homo sapiens)	Fulfilled

# input // inclusive: pKi at least 8? input: CC1(C)CC(=O)c2c(ccc3c2C(c2ccc(Cl)cc2)Oc2ccccc2-3)N1 (configuration not stated)
# output Not fulfilled

# input Does C[C@H]1C(=O)C(C)(C)Nc2ccc3c(c21)[C@H](c1cccc(F)c1)Oc1ccccc1-3 have a reported pKi of at least 8?
# output Not fulfilled

* * *

Biological target: Glucocorticoid receptor (Homo sapiens, UniProt P04150)
Sequence (P04150 whole entry): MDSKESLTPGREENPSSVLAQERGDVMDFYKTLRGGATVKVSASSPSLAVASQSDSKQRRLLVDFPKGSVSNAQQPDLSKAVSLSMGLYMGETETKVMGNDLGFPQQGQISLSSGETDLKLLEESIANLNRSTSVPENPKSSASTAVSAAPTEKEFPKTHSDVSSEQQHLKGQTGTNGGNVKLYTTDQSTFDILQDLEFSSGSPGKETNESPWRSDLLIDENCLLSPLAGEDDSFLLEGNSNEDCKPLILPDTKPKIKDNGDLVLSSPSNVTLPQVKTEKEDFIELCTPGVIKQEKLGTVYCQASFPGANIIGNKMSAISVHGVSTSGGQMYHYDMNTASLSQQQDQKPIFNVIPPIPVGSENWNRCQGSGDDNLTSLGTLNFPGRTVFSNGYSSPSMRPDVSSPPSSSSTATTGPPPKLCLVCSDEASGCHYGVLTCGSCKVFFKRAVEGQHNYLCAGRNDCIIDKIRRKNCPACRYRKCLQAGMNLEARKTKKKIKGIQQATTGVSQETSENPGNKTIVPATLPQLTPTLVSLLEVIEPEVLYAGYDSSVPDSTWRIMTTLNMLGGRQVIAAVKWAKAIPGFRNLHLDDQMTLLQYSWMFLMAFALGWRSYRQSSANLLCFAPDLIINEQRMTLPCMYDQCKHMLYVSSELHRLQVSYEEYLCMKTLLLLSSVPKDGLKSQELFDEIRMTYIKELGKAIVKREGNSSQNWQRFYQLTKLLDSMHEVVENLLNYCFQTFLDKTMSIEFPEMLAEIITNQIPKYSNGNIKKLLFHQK
propertyName: Ki

Answered examples (3):
lineNotation	Ki
C[C@@H]1C(=O)C(C)(C)Nc2ccc3c(c21)[C@H](c1cccc(C(F)(F)F)c1)Oc1ccccc1-3	257 nM
C[C@H]1C(=O)C(C)(C)Nc2ccc3c(c21)[C@H](c1ccc(Cl)cc1)Oc1ccccc1-3	913 nM
C[C@@H]1C(=O)C(C)(C)Nc2ccc3c(c21)[C@H](c1cccc(F)c1)Oc1ccccc1-3	193 nM

Here's the next entry for you.
# input Dear colleague, I am looking for the recorded Ki of the following compound: C[C@H]1C(=O)C(C)(C)Nc2ccc3c(c21)[C@H](c1cccc(F)c1)Oc1ccccc1-3
# output 864 nM

* * *

Target: Androgen receptor (Homo sapiens)
Sequence (P10275 whole entry): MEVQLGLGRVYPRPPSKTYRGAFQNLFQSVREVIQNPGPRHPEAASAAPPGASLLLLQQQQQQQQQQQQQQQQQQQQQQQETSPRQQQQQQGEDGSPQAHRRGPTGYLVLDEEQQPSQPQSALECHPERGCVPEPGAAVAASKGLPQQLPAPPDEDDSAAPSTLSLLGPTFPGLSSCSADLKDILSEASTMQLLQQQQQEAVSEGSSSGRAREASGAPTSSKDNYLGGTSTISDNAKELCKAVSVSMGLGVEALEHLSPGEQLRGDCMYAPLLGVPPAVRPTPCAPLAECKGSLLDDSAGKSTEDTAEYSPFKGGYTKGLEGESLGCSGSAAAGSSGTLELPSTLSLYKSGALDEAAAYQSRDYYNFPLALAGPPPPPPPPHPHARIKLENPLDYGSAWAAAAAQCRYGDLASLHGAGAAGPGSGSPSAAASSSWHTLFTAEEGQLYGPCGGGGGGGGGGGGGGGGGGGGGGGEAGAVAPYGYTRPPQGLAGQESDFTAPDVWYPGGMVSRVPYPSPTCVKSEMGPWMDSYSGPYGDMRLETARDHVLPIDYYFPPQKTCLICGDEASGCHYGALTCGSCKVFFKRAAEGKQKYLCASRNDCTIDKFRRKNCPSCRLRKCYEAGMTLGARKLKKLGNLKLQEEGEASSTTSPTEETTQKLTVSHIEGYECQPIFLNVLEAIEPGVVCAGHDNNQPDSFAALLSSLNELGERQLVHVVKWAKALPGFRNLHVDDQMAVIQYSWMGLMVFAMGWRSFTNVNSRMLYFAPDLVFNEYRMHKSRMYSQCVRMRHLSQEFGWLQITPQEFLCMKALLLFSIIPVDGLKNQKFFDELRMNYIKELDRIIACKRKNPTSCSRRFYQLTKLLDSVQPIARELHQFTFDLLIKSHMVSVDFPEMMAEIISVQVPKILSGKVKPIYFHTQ
Overview of reported Ki across a group of compounds:
Give the value, in units of nM, as a plain number.

Answered examples (5):
compound	testedSystem	assayResult
C[C@H]1C(=O)C(C)(C)Nc2ccc3c(c21)[C@H](c1cccc(F)c1)Oc1ccccc1-3	Androgen receptor (Homo sapiens)	504
CC1C(=O)C(C)(C)Nc2ccc3c(c21)/C(=C/c1cccc(F)c1)Oc1ccccc1-3 (configuration not stated)	Androgen receptor (Homo sapiens)	560
CC1C(=O)C(C)(C)Nc2ccc3c(c21)/C(=C/c1ccccc1)Oc1ccccc1-3 (configuration not stated)	Androgen receptor (Homo sapiens)	1200
C[C@@H]1C(=O)C(C)(C)Nc2ccc3c(c21)[C@H](c1cccc(F)c1)Oc1ccccc1-3	Androgen receptor (Homo sapiens)	620
C[C@H]1C(=O)C(C)(C)Nc2ccc3c(c21)[C@H](c1ccccc1)Oc1ccccc1-3	Androgen receptor (Homo sapiens)	1080

# input Which Ki is listed for C[C@H]1C(=O)C(C)(C)Nc2ccc3c(c21)[C@H](c1cccc(C(F)(F)F)c1)Oc1ccccc1-3 ?
# output 807

# input Query (compound): C[C@@H]1C(=O)C(C)(C)Nc2ccc3c(c21)[C@H](c1ccc(Cl)cc1)Oc1ccccc1-3 ; field requested: Ki
# output 1180

Reference source: ChEMBL document CHEMBL1132711
